# Assay Procedure: NCI Yeast Anticancer Drug Screen. Data for the bub3 strain (AID 167)
# Condition Set: S. cerevisiae bub3 mutant strain, at 50.0 µM, stronger effect = higher value
About 79,000 compounds went through this panel and 15% of them were active in at least one assay; those are over-represented in the sample as a whole.
Catalogue of growth inhibition values
Field: numeric (%). Do not append units.

For orientation, consider the following solved cases.
Molecule: Nc1[nH]c(=S)[nH]c(=O)c1N=Nc1c(Br)cc(S(N)(=O)=O)cc1Br
growth inhibition / %: 9.2

Molecule: O=C1CCC2(c3ccccc3)Nc3ncccc3N12 (stereo unspecified)
growth inhibition / %: 23

Molecule: Cc1cc(S(=O)(=O)Nc2nc3ccccc3[nH]2)c(S)cc1Cl
growth inhibition / %: 5.55

Molecule: CCOC(=O)c1ccc(NC(=S)NC(=O)c2cccc([N+](=O)[O-])c2)cc1
growth inhibition / %: 15.1

Molecule: O=C(Nc1ccc(C(F)(F)F)cc1)NC(F)(F)F
growth inhibition / %: -3.65

Molecule: Cn1c(-c2ccccc2)c2c(=O)oc3ccccc3c2c1-c1ccccc1
growth inhibition / %: 8.25

Molecule: C/C=C\C=C\C(=O)O
growth inhibition / %: -19.8

Molecule: C=CCOCn1ccc(NC(=O)c2ccccc2)nc1=O
growth inhibition / %: -8.4

Molecule: Cc1cc(C)c(C)c(C)c1C
growth inhibition / %: -3.6

Molecule: O=[N+]([O-])c1ccc(Nc2ccccc2)c2nonc12
growth inhibition / %: 13.8

### Prompt Look up growth inhibition for this molecule: C/C(CC(=O)Nc1ccc(C)c(C)c1)=N\NC(N)=O
### Response -22

### Prompt Continue with CC(=O)Nc1cc(C)c(C)cc1[N+](=O)[O-]
### Response -27.1

### Prompt Continue with CC(=S)N/C=C/c1c(C(=O)O)cc([N+](=O)[O-])cc1[N+](=O)[O-]
### Response -18.9

### Prompt Continue with Cc1nc2ccccc2nc1C
### Response -2.35

### Prompt Continue with CCOC(=O)c1ccc(NC(=S)Nc2ccccc2S)cc1
### Response 10.1

### Prompt Continue with CC(C)C(NC(=O)CI)C(=O)Nc1ccc(C(=O)O)c(O)c1 (stereo unspecified)
### Response 7.1

### Prompt Continue with C1CCC(C2CCC(C3CCCCC3)CC2)CC1 (stereo unspecified)
### Response 6.35

### Prompt Continue with CCCSCCC(N)C(=O)O (stereo unspecified)
### Response -2.9

### Prompt Continue with CCOc1ccc(/C=C2\N=C(c3ccccc3)OC2=O)cc1OC
### Response 5.85

### Prompt Continue with C/C(CC(=O)Nc1cc(Cl)c(Cl)cc1Cl)=N\NC(N)=O
### Response 30.3

### Prompt Continue with O=C(O)c1ccc(N=NC2Sc3nc4ccccc4n3C2=O)cc1 (stereo unspecified)
### Response 11.2

### Prompt Continue with ClC(Cl)(Cl)C(=NNc1ccccc1)C(Cl)(Cl)Cl
### Response 30.6

### Prompt Continue with c1ccc(CC2CO2)cc1 (stereo unspecified)
### Response -0.2

====

# Assay Procedure: NCI Yeast Anticancer Drug Screen. Data for the cln2 rad14 strain (AID 165);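 note: 0% = growth equal to vehicle treated cultures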
# Condition Set: S. cerevisiae cln2 rad14 strain, at 50.0 µM
About 79,000 compounds went through this panel and 15% of them were active in at least one assay; those are over-represented in the sample as a whole. Calls of active or inactive are those of the source. Rule as the data show it: active = growth inhibition above about 70%; inactive = the rest.
Choose the fitting class; nothing outside T for active, F for inactive is accepted.

A selection of reference data follows.
Compound: O=C(COc1ccc(Cl)cc1C(=O)O)NCc1cccc2ccccc12
Label Class: F

Compound: Cc1ccc(S(=O)(=O)C(=S)SCc2ccccc2)cc1
Label Class: F

Compound: O=[N+]([O-])c1ccc(NN=C2CN3CCN(C2)c2ccccc23)c([N+](=O)[O-])c1
Label Class: F

Compound: C(=N\N1CCN(/N=C/c2c[nH]c3ccccc23)CC1)/c1c[nH]c2ccccc12
Label Class: F

Compound: CC(=O)N1CCC(=O)/C(=C/c2ccccc2)C1
Label Class: F

### Prompt Outcome? CC1OC(OC2C(OC(=O)[C@@H]3CC(C)(C)C[C@@H]4C5=CC[C@@H]6[C@@]7(C)C[C@H](O)[C@H](OC8OC(CO)C(O)C(O)C8O)[C@@](C)(CO)C7[C@H](O)C[C@@]6(C)[C@]5(C)C[C@@H](O)[C@H]43)OCC(O)C2O)C(O)C(O)C1O (stereo not given in full)
### Response F

### Prompt Continue with CC(=O)OCC1OC2OC(C)(C)OC2C1NC(=O)C(F)(F)F (stereo not given)
### Response F

### Prompt Continue with O=C(O)c1cc(Br)sc1Br
### Response F

### Prompt Continue with CC1=C/C(=N/Nc2ccc([N+](=O)[O-])cc2[N+](=O)[O-])CC(C)(C)C1
### Response F

### Prompt Continue with CCOC(=O)c1ccc(NC(=S)NC(=O)c2cccc([N+](=O)[O-])c2)cc1
### Response F

### Prompt Continue with COC(=O)C1OC(O[C@H]2CC[C@]3(C)[C@H]4CC=C5[C@@H]6CC(C)(C)CC[C@]6(C(=O)OC)CC[C@@]5(C)[C@]4(C)CC[C@H]3C2(C)C)C(O)C(O)C1O (stereo not given in full)
### Response F
